system: expanded OPCs; assay: cells; conditions: alamarBlue viability of expanded OPCs, compound at 1 µM, relative to DMSO control
PARAMETER: 1 µM (% DMSO)

COMPOUND	RECORDED_RESULT
CC(=O)CC(c1ccccc1)c1c(O)c2ccccc2oc1=O (stereo not drawn) [Warfarin]	93.8
C[C@H]1C[C@@H]2[C@H]([C@@H](O)C[C@@]3(C)[C@H]2CC[C@]3(O)C(=O)CO)[C@@]2(C)C=CC(=O)C=C12 [Methylprednisolone]	111.5
O=C(O)c1cc(-c2ccc(F)cc2F)ccc1O [Diflunisal]	92.0
C[C@]12C=CC(=O)C=C1CC[C@@H]1[C@@H]2[C@@H](O)C[C@@]2(C)[C@H]1CC[C@]2(O)C(=O)CO [Prednisolone]	112.6
CCOc1ccc2ccccc2c1C(=O)N[C@@H]1C(=O)N2[C@@H]1SC(C)(C)[C@@H]2C(=O)O [Nafcillin]	94.8
CO[C@H]1/C=C/O[C@@]2(C)Oc3c(C)c(O)c4c(O)c(c(/C=N/N5CCN(C)CC5)c(O)c4c3C2=O)NC(=O)/C(C)=C\C=C\[C@H](C)[C@H](O)[C@@H](C)[C@@H](O)[C@@H](C)[C@H](OC(C)=O)[C@@H]1C [Rifampicin]	85.6
CN1CCN(CC/C=C2/c3ccccc3Sc3ccc(S(=O)(=O)N(C)C)cc32)CC1 [Thiothixene]	49.9
C[C@@H]1C[C@H]2[C@@H]3CCC4=CC(=O)C=C[C@]4(C)[C@@]3(F)[C@@H](O)C[C@]2(C)[C@@]1(O)C(=O)CO [Dexamethazone]	108.1
CC(=O)OCC(=O)[C@@]12OC3(CCCC3)O[C@@H]1C[C@H]1[C@@H]3CCC4=CC(=O)C=C[C@]4(C)[C@@]3(F)[C@@H](O)C[C@@]12C [Amcinonide]	123.7
Nc1ncn([C@@H]2O[C@H](CO)[C@@H](O)[C@H]2O)c(=O)n1 [Azacitidine]	66.4
CCCc1cc(=O)[nH]c(=S)[nH]1 [Propylthiouracil]	95.9
CC(=O)O[C@]1(C(C)=O)CC[C@H]2[C@@H]3C[C@H](C)C4=CC(=O)CC[C@]4(C)[C@H]3CC[C@@]21C [Medroxyprogesterone acetate]	103.1
O=c1[nH]c(=O)n([C@H]2C[C@H](O)[C@@H](CO)O2)cc1F [Floxuridine]	64.9
Oc1c(Cl)cc(Cl)c(Cl)c1Cc1c(O)c(Cl)cc(Cl)c1Cl [Hexachlorophene]	10.8
CC1COc2c(N3CCN(C)CC3)c(F)cc3c(=O)c(C(=O)O)cn1c23 (stereo not drawn) [Ofloxacin]	91.6
Nc1ccc(S(=O)(=O)c2ccc(N)cc2)cc1 [Dapsone]	96.3
COc1c(N2CCNC(C)C2)c(F)cc2c(=O)c(C(=O)O)cn(C3CC3)c12 (stereo not drawn) [Gatifloxacin]	98.0
O=c1[nH]cc(F)c(=O)[nH]1 [5-Fluorouracil]	26.6
COc1ccc([C@@H]2Sc3ccccc3N(CCN(C)C)C(=O)[C@@H]2OC(C)=O)cc1 [Diltiazem]	67.2
COC1=CC(=O)C[C@@H](C)[C@]12Oc1c(Cl)c(OC)cc(OC)c1C2=O [Griseofulvin]	93.1
O=C(c1ccc(OCCN2CCCCC2)cc1)c1c(-c2ccc(O)cc2)sc2cc(O)ccc12 [Raloxifene, reference compound]	38.6
N[C@@H](Cc1cc(I)c(Oc2ccc(O)c(I)c2)c(I)c1)C(=O)O [Triiodothyronine]	217.6
c1ccc(CC2=NCCN2)cc1 [Tolazoline]	94.2
COc1cc2nc(N3CCN(C(=O)C4CCCO4)CC3)nc(N)c2cc1OC (stereo not drawn) [Terazosin]	94.6
Sc1ncnc2nc[nH]c12 [Mercaptopurine]	92.7
O=C1CC2(CCCC2)CC(=O)N1CCCCN1CCN(c2ncccn2)CC1 [Buspirone]	95.9
CC1(C)S[C@@H]2[C@H](NC(=O)COc3ccccc3)C(=O)N2[C@H]1C(=O)O [Penicillin V]	96.3
CC(C)Cc1ccc(C(C)C(=O)O)cc1 (stereo not drawn) [Ibuprofen]	90.2
CC(C)NCC(O)c1cc(O)cc(O)c1 (stereo not drawn) [Metaproterenol]	91.6
CNC[C@H](O)c1ccc(O)c(O)c1 [Epinephrine]	92.7
NS(=O)(=O)c1cc2c(cc1C(F)(F)F)NC(Cc1ccccc1)NS2(=O)=O (stereo not drawn) [Bendroflumethiazide]	93.1
CC(COc1ccccc1)N(CCCl)Cc1ccccc1 (stereo not drawn) [Phenoxybenzamine]	116.7
CCCNC(C)C(=O)Nc1ccccc1C (stereo not drawn) [Prilocaine]	89.9

* * *

Documented activation at 0.4 µM across a set of compounds
Tested on: acutely dissociated and purified rat OPCs
Experiment: Acute OL differentiation assay (MBP expression/cell, immunofluorescent image quantification)
Assay type: cell-based
Settings: Rattus norvegicus, test compound at 0.4 uM; MBP expression relative to quetiapine; NCC library screen, sheet "All OLga data"; read-out: 0.4 uM (% Quet)
Excerpt: In order to identify compounds with the potential to promote OL differentiation in vivo and thereby enhance remyelination, we first wanted to establish an in vitro assay system that would closely mimic conditions in vivo. […] To quantify the extent of OL differentiation occurring in treatment conditions, we measured the overall amount of MBP expression/cell (see “Methods” section). Figure 2a depicts the mask created over MBP staining under which the MBP expression was quantified. […]
Counter-ions that a name gives are not always drawn.
PARAMETER: activation at 0.4 µM (%)

> print(dat)
                                   compound             parameter  recorded.result
1  CN[C@H]1CC[C@@H](c2ccc(Cl)c(Cl)c2)c2ccccc21 [Sertraline]  activation at 0.4 µM             -134
2  CCOC(=O)C1=C(C)NC(C)=C(C(=O)OC)C1c1cccc(Cl)c1Cl (stereo not drawn) [Felodipine]  activation at 0.4 µM              0.8
3  COc1cc2nc(N3CCN(C(=O)C4COc5ccccc5O4)CC3)nc(N)c2cc1OC (stereo not drawn) [Doxazosin]  activation at 0.4 µM                2
4  CN1CCN(C2=Nc3cc(Cl)ccc3Nc3ccccc32)CC1 [Clozapine]  activation at 0.4 µM             -5.6
5  O=c1[nH]c(=O)n([C@H]2C[C@H](O)[C@@H](CO)O2)cc1F [Floxuridine]  activation at 0.4 µM            -13.5
6  CC(C)NCC(O)COc1cccc2ccccc12 (stereo not drawn) [Propranolol]  activation at 0.4 µM             0.38
7  CC(N)C12CC3CC(CC(C3)C1)C2 (stereo not drawn) [Rimantadine]  activation at 0.4 µM            -17.2
8  NC(=O)c1ncn([C@@H]2O[C@H](CO)[C@@H](O)[C@H]2O)n1 [Ribavirin]  activation at 0.4 µM              8.6
9  CNCCC(Oc1ccc(C(F)(F)F)cc1)c1ccccc1 (stereo not drawn) [Fluoxetine hydrochloride]  activation at 0.4 µM             10.7

* * *

test system: expanded OPCs; experiment: cells; conditions: alamarBlue viability of expanded OPCs, compound at 1 µM, relative to DMSO control
We begin with a simple list: items and their reported 1 µM (% DMSO).
PARAMETER: 1 µM (% DMSO)

> print(dat)
                                   compound  target.system      parameter       u  recorded.result
1  O=C1CN(/N=C/c2ccc([N+](=O)[O-])o2)C(=O)N1  expanded OPCs  1 µM (% DMSO)  % DMSO            101.9
2            CN(C)CCC=C1c2ccccc2CCc2ccccc21  expanded OPCs  1 µM (% DMSO)  % DMSO             60.1
3  CCC(C)(C)C(=O)O[C@H]1C[C@@H](C)C=C2C=C[C@H](C)[C@H](CC[C@@H]3C[C@@H](O)CC(=O)O3)[C@H]21  expanded OPCs  1 µM (% DMSO)  % DMSO             86.5
4  OC(CCN1CCCCC1)(c1ccccc1)C1CCCCC1 (centres unmarked)  expanded OPCs  1 µM (% DMSO)  % DMSO             84.6
5                           N[C@@H]1CON=C1O  expanded OPCs  1 µM (% DMSO)  % DMSO             97.0
6  C[C@H]1c2cccc(O)c2C(=O)C2=C(O)[C@]3(O)C(=O)C(C(N)=O)=C(O)[C@@H](N(C)C)[C@@H]3[C@@H](O)[C@@H]21  expanded OPCs  1 µM (% DMSO)  % DMSO             91.4
7               Brc1c(NC2=NCCN2)ccc2nccnc12  expanded OPCs  1 µM (% DMSO)  % DMSO             99.2
8  NC(Cc1cc(I)c(Oc2cc(I)c(O)c(I)c2)c(I)c1)C(=O)O (centres unmarked) [thyroxine, reference compound]  expanded OPCs  1 µM (% DMSO)  % DMSO            190.0
